experimental-system: recombinant human 11β-HSD type 1 enzyme (Homo sapiens, UniProt P28845)
Sequence (P28845 whole entry): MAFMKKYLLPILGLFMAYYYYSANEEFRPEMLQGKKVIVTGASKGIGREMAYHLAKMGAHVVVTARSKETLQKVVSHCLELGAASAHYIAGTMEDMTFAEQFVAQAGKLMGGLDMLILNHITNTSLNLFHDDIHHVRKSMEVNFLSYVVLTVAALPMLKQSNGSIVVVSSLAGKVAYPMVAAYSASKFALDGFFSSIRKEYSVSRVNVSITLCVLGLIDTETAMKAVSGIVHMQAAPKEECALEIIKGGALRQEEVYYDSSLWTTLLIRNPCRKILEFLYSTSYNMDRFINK
assay-method-text: 11β-HSD type 1 enzyme assay (NADPH fluorescence)
Type: biochemical
experimental-setup: three hour incubation at room temperature
Here, each record is paired with measured pIC50 data.
The read-out pIC50 is expressed as -log10 of concentration in moles per litre.

>>> df
                                   compound  measurement_type  reported_result
0  O=C1C(Cc2ccc(Cl)cc2Cl)CCN1C1CCC(O)CC1 (stereo not shown)             pIC50             6.42
1  O=C1C(Cc2ccc(-c3cccnc3)cc2Cl)CCCN1C1CCCCC1 (stereo not shown)             pIC50             6.31
2  O=C1C(Cc2ccc(-c3ccncc3)cc2Cl)CCN1C1CCCCC1 (stereo not shown)             pIC50             6.42
3  O=C1C(Cc2c(F)cccc2Cl)CCCN1C1CCCCC1 (stereo not shown)             pIC50             6.06
4  CC1CCCCC1N1CCC(Cc2ccc(-c3cccnc3)cc2Cl)C1=O (stereo not shown) [drawing 383]             pIC50             6.56
5  CC1CCCCC1N1CCC(Cc2c(Cl)cc(-c3ccncc3)cc2Cl)C1=O (stereo not shown)             pIC50             6.25

Then there is this compound:
Return pIC50 (reported value) for this compound: O=C1C(Cc2c(Cl)cc(Cl)cc2Cl)CCN1C1CCC(O)CC1 (stereo not shown) [drawing 379]
6.64
